Measured peptide exchange yield by item
target: HLA-A*02 (human); assay: UV-exchange b2m ELISA

The examples below pair each entry with its known result.
KLMPGTYTL :: > 75%
KLEENGDLYL :: > 75%

## Input Look up peptide exchange yield of LLYPEPWSV and report it.
## Output > 75%

## Input Look up peptide exchange yield of VLDPALPALV and report it.
## Output 20 to 49%

## Input Look up peptide exchange yield of ALFDSLRHV and report it.
## Output 50 to 75%

## Input Look up peptide exchange yield of YTLREVDTV and report it.
## Output 20 to 49%

## Input Look up peptide exchange yield of ALLGMIIVGV and report it.
## Output < 20%

## Input Look up peptide exchange yield of LLVSHLYLV and report it.
## Output 20 to 49%
